measurement.notes: Pharmacokinetics following a single oral dose in rats
Format: in vivo
condition.notes: rat, nominal 10 mg/kg, male Sprague-Dawley rats, plasma
Reported Cmax by item:
measured.metric: Cmax (ng/mL)

smiles.record: O=C(NCc1c(F)cccc1C(F)(F)F)c1cn(Cc2ccc(Cn3ccccc3=O)cc2)nc1C(F)(F)F
measured.metric: Cmax
display.unit: ng/mL
numeric.readout: 101

smiles.record: COCc1nn(Cc2ccc(Cn3ccccc3=O)cc2)cc1C(=O)NCc1c(F)ccc(OC)c1F
measured.metric: Cmax
display.unit: ng/mL
numeric.readout: 2890

smiles.record: COCc1nn(Cc2ccc(Cn3ccccc3=O)cc2)cc1C(=O)NCc1nccc(OC)c1F
measured.metric: Cmax
display.unit: ng/mL
numeric.readout: 1530

smiles.record: COCc1nn(Cc2ccc(Cn3ccccc3=O)cc2)cc1C(=O)NCc1c(C#N)ccc(OC)c1F
measured.metric: Cmax
display.unit: ng/mL
numeric.readout: 397

smiles.record: COCc1nn(Cc2ccc(Cn3ccccc3=O)cc2)cc1C(=O)NCc1cccc(OC)c1F
measured.metric: Cmax
display.unit: ng/mL
numeric.readout: 1030

smiles.record: COc1cccc(CNC(=O)c2cn(Cc3ccc(Cn4ccccc4=O)cc3)nc2N)c1F
measured.metric: Cmax
display.unit: ng/mL
numeric.readout: 351

* * *

test.target: Human plasma kallikrein (Homo sapiens (Human), UniProt P03952)
Sequence (P03952 391-638): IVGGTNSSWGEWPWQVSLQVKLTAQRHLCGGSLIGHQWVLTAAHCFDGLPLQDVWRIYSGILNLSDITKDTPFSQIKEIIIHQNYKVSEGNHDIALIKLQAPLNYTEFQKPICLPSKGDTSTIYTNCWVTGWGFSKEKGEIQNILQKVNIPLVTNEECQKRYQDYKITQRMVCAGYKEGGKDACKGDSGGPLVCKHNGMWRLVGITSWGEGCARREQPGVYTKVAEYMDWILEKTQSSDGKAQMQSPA
Sequence (P03952 20-390 partner): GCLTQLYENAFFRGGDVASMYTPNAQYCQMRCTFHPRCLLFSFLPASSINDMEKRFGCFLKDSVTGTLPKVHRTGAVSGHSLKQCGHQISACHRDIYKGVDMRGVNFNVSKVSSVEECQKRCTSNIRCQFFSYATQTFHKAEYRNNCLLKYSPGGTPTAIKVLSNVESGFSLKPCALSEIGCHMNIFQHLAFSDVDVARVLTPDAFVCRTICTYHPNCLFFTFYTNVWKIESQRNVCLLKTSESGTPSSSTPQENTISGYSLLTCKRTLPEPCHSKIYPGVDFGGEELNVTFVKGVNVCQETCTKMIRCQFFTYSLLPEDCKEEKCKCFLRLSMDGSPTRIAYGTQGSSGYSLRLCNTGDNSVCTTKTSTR
measurement.notes: Determination of the IC50 for plasma kallikrein
Format: biochemical
condition.notes: 25° C., fluorogenic substrate H-DPro-Phe-Arg-AFC; read-out: IC50 (human PKaI)
measured.metric: log10 IC50 (log10 of the value in nM)

compound: COCc1nn(Cc2ccc(Cn3ccccc3=O)cc2)cc1C(=O)NCc1c(F)cccc1C(F)F
measured.metric: log10 IC50
numeric.readout: 1.31
//
compound: Nc1nn(Cc2ccc(Cn3ccccc3=O)cc2)cc1C(=O)NCc1cccc(O)c1F
measured.metric: log10 IC50
numeric.readout: 2.24
//
compound: CN1CC(CNC(=O)c2cn(Cc3ccc(Cn4ccccc4=O)cc3)nc2N)Oc2cc(Cl)ccc21 (stereo not drawn)
measured.metric: log10 IC50
numeric.readout: 1.81
//
compound: COCc1nn(Cc2ccc(Cn3ccccc3=O)cc2)cc1C(=O)NCc1cc(F)ccc1F
measured.metric: log10 IC50
numeric.readout: 2.89
//
compound: Cc1cnn(Cc2ccc(Cn3cc(C(=O)NCc4ncccc4F)c(C(F)(F)F)n3)cc2)c1
measured.metric: log10 IC50
numeric.readout: 3.34
//
compound: Nc1nn(Cc2ccc(Cn3ccccc3=O)cc2)cc1C(=O)NCc1c(F)cccc1C(F)(F)F
measured.metric: log10 IC50
numeric.readout: 1.43
//
compound: COCc1nn(Cc2ccc(Cn3ccccc3=O)cc2)cc1C(=O)NCc1ccc(C)nc1
measured.metric: log10 IC50
numeric.readout: 3.90
//
compound: COCc1nn(Cc2ccc(Cn3ccccc3=O)cc2)cc1C(=O)NCc1cccc(OC)c1C(F)(F)F
measured.metric: log10 IC50
numeric.readout: 2.79
//
compound: Cc1cnn(Cc2ccc(Cn3cc(C(=O)NCc4c(F)cccc4F)c(C(F)(F)F)n3)cc2)c1
measured.metric: log10 IC50
numeric.readout: 2.64

* * *

test.target: Human plasma kallikrein (Homo sapiens (Human))
measurement.notes: Determination of the IC50 for plasma kallikrein
condition.notes: 25° C., fluorogenic substrate H-DPro-Phe-Arg-AFC; read-out: IC50 (human PKaI)
pIC50: −log10 of the molar value.

smiles.record: COCc1nn(Cc2ccc(Cn3ccccc3=O)cc2)cc1C(=O)NCc1cc(Cl)cc(OC)c1
modifier: =
pIC50: 6.41
//
smiles.record: Cc1cc(C)c(CNC(=O)c2cn(Cc3ccc(Cn4cc(C)cn4)cc3)nc2C(F)(F)F)c(C)c1
modifier: =
pIC50: 5.87
//
smiles.record: COCc1nn(Cc2ccc(Cn3ccccc3=O)cc2)cc1C(=O)NCc1c(F)cccc1OC(F)F
modifier: =
pIC50: 7.80
//
smiles.record: COCc1nn(Cc2ccc(Cn3ccccc3=O)cc2)cc1C(=O)NCc1ccccc1F
modifier: =
pIC50: 6.24
//
smiles.record: COCc1nn(Cc2ccc(Cn3ccncc3=O)cc2)cc1C(=O)NCc1cccc(OC)c1F
modifier: =
pIC50: 6.16
//
smiles.record: COc1cccc(CNC(=O)c2cn(Cc3ccc(Cn4ccccc4=O)cc3)nc2N)c1F
modifier: =
pIC50: 8.06
//
smiles.record: COCc1nn(Cc2ccc(Cn3cc(F)ccc3=O)cc2)cc1C(=O)NCc1c(F)ccc(OC)c1F
modifier: =
pIC50: 8.26
//
smiles.record: COCc1nn(Cc2ccc(Cn3ccccc3=O)cc2)cc1C(=O)NCc1cccc(OC(F)F)c1F
modifier: =
pIC50: 6.81
//
smiles.record: Cc1ccc(CNC(=O)c2cn(Cc3ccc(Cn4cc(C)cn4)cc3)nc2C(F)(F)F)c(F)c1
modifier: =
pIC50: 6.55
//
smiles.record: Cc1cnn(Cc2ccc(Cn3cc(C(=O)NCc4cccc(F)c4C)c(C(F)(F)F)n3)cc2)c1
modifier: <
pIC50: 5.00
//
smiles.record: COCc1nn(Cc2ccc(Cn3ccccc3=O)cc2)cc1C(=O)NCc1cccc(O)c1F
modifier: =
pIC50: 6.36
//
smiles.record: COc1cccc(CNC(=O)c2cn(Cc3ccc(Cn4cc(C)cn4)cc3)nc2C(F)(F)F)c1
modifier: =
pIC50: 6.44
//
smiles.record: Cc1cnn(Cc2ccc(Cn3cc(C(=O)NCc4c(F)cccc4Cl)c(C(F)(F)F)n3)cc2)c1
modifier: =
pIC50: 6.29
//
smiles.record: COCc1nn(Cc2ccc(Cn3ccccc3=O)cc2)cc1C(=O)NCc1cc(OC)ccc1C(F)F
modifier: =
pIC50: 8.64
//
smiles.record: COCc1nn(Cc2ccc(N3CCCC3)nc2)cc1C(=O)NCc1csc2ccc(Cl)cc12
modifier: =
pIC50: 5.62
//
smiles.record: COCc1nn(Cc2ccc(Cn3ccccc3=O)cc2)cc1C(=O)NCc1cccnc1C(F)(F)F
modifier: =
pIC50: 5.38
//
smiles.record: COCc1nn(Cc2ccc(Cn3ccccc3=O)cc2)cc1C(=O)NCc1nc(OC)ccc1F
modifier: =
pIC50: 6.08

* * *

test.target: Human FXIa (Homo sapiens (Human))
Sequence (P03951 388-625): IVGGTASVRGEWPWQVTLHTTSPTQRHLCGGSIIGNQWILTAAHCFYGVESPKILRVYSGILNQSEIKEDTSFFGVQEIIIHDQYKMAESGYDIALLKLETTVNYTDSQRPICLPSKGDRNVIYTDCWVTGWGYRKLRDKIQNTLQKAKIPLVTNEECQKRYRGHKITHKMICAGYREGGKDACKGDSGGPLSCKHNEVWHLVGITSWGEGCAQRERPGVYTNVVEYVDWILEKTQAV
Sequence (P03951 19-387 partner): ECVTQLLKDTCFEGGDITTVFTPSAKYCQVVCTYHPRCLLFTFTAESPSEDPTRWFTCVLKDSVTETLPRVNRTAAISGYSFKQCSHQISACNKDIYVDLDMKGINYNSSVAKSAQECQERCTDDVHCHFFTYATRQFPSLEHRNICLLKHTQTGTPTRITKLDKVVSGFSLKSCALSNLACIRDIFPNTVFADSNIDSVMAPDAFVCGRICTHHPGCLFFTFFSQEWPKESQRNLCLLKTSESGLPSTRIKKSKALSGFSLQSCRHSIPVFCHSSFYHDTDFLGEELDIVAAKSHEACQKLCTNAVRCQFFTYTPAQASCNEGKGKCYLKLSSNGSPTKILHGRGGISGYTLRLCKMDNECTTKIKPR
measurement.notes: Determination of the % inhibition for FXIa
Type: biochemical
condition.notes: 40 μM test compound, 25° C., substrate Z-Gly-Pro-Arg-AFC
measured.metric: inhibition at 40 µM (%)

compound: COCc1nn(Cc2ccc(Cn3ccccc3=O)cc2)cc1C(=O)NCc1nccc(OC)c1F [Example 41]
display.unit: %
numeric.readout: 0
//
compound: COCc1nn(Cc2cnc3cc(Cl)ccc3c2)cc1C(=O)NCc1cccc(OC)c1F [Example 3]
display.unit: %
numeric.readout: 3
//
compound: COCc1nn(Cc2ccc(Cn3ccccc3=O)cc2)cc1C(=O)NCc1nc(OC)ccc1F [Example 42]
display.unit: %
numeric.readout: 1
//
compound: Nc1nn(Cc2ccc(Cn3ccccc3=O)cc2)cc1C(=O)NCC1CNc2ccc(Cl)cc2O1 (stereo not shown) [Example 140]
display.unit: %
numeric.readout: 9
//
compound: COCc1nn(Cc2ccc(Cn3ccccc3=O)cc2)cc1C(=O)NCc1cc(F)cc(OC)c1F [Example 96]
display.unit: %
numeric.readout: 0
//
compound: COCc1nn(Cc2ccc(Cn3ccccc3=O)cc2)cc1C(=O)NCc1cc(OC)cc(OC)c1 [Example 1]
display.unit: %
numeric.readout: 0
//
compound: COc1cccc(CNC(=O)c2cn(Cc3ccc(Cn4ccccc4=O)cc3)c(C)n2)c1F [Example 121]
display.unit: %
numeric.readout: 0
//
compound: COCc1nn(Cc2ccc(Cn3ccccc3=O)cc2)cc1C(=O)NCc1cccc(OC)c1 [Example 133]
display.unit: %
numeric.readout: 1
//
compound: COCc1nn(Cc2ccc(Cn3ccccc3=O)cc2)cc1C(=O)NCc1ccccc1C(=O)O [Example 87]
display.unit: %
numeric.readout: 2
//
compound: COCc1nn(Cc2ccc(Cn3ccccc3=O)cc2)cc1C(=O)NCc1ccc(C)nc1 [Example 39]
display.unit: %
numeric.readout: 0
//
compound: COCc1nn(Cc2ccc(Cn3ccccc3=O)cc2)cc1C(=O)NCc1cc(OC)ccc1C(F)F [Example 81]
display.unit: %
numeric.readout: 1
//
compound: NC(=O)c1ccccc1CNC(=O)c1cn(Cc2ccc(Cn3ccccc3=O)cc2)nc1C1CC1 [Example 48]
display.unit: %
numeric.readout: 2
//
compound: CCc1cccc(CNC(=O)c2cn(Cc3ccc(Cn4ccccc4=O)cc3)nc2COC)c1F [Example 132]
display.unit: %
numeric.readout: 0
//
compound: COCc1nn(Cc2ccc(Cn3ccccc3=O)cc2)cc1C(=O)NCc1c(Cl)ccc(OC)c1F [Example 99]
display.unit: %
numeric.readout: 4
//
compound: COCc1nn(Cc2ccc(Cn3ccccc3=O)cc2)cc1C(=O)NCc1c(F)ccc(OC)c1F [Example 66]
display.unit: %
numeric.readout: 4
//
compound: COCc1nn(Cc2ccc(Cn3ccccc3=O)cc2)cc1C(=O)NCc1cccc(OC)c1C(F)(F)F [Example 78]
display.unit: %
numeric.readout: 0
//
compound: COCc1nn(Cc2ccc(Cn3ccccc3=O)cc2)cc1C(=O)NCc1cccc(OC)n1 [Example 40]
display.unit: %
numeric.readout: 1
//
compound: COCc1nn(Cc2ccc(Cn3ccccc3=O)cc2)cc1C(=O)NCc1ccccc1F [Example 62]
display.unit: %
numeric.readout: 0
//
compound: COCc1nn(Cc2ccc(Cn3ccccc3=O)cc2)cc1C(=O)NCc1ccc(C)cc1F [Example 65]
display.unit: %
numeric.readout: 0
//
compound: COCc1nn(Cc2ccc(Cn3ccccc3=O)cc2)cc1C(=O)NCc1cc(OC)ccc1F [Example 64]
display.unit: %
numeric.readout: 0
//
compound: COCc1nn(Cc2ccc(Cn3ccccc3=O)cc2)cc1C(=O)NCc1cc(OC)ccc1C(F)(F)F [Example 79]
display.unit: %
numeric.readout: 2
//
compound: COCc1nn(Cc2ccc(Cn3ccccc3=O)cc2)cc1C(=O)NCc1c(OC)ccc(OC)c1F [Example 54]
display.unit: %
numeric.readout: 17
